Where these numbers come from: patent US9802899B2

A collection of compounds and their measured log P
assay: Determination of the log P values by HPLC (formic acid method); format: physicochemical; conditions: reversed-phase column (C 18), acidic range (pH 3.4), 55° C.
Keep the answer to the number alone.

- COMPOUND STRUCTURE STRING: "O=C(Nc1ccn(-c2ccccc2Cl)n1)c1ncccc1C(F)(F)F"
  log P: 2.99
- COMPOUND STRUCTURE STRING: "CCn1nc(C)c(Cl)c1C(=O)Nc1ccn(-c2ncc(F)cc2F)n1"
  log P: 2.93
- COMPOUND STRUCTURE STRING: "O=C(Nc1ccn(-c2ccccc2Cl)n1)c1ccccc1C(F)F"
  log P: 3.03
- COMPOUND STRUCTURE STRING: "O=C(Nc1ccn(-c2ncccc2F)n1)c1ccsc1I"
  log P: 2.30

Requested field: log P. Item: "CCCn1ncc(I)c1C(=O)Nc1ccn(-c2ncc(F)cc2F)n1"
2.93

Requested field: log P. Item: "Cc1nn(C)c(C(=O)Nc2ccn(-c3c(F)cccc3F)n2)c1F"
2.20

Requested field: log P. Item: "CC1=C(C(=O)Nc2ccn(-c3ccccc3Cl)n2)SCCO1"
2.75

Requested field: log P. Item: "O=C(Nc1ccn(-c2ncc(F)cc2F)n1)c1ccccc1F"
2.31

Requested field: log P. Item: "O=C(Nc1cnn(-c2c(F)cccc2F)n1)c1c(F)cccc1F"
2.59

Requested field: log P. Item: "O=C(Nc1ccn(-c2ncc(F)cc2F)n1)c1cc(F)ccc1C(F)(F)F"
2.65

Requested field: log P. Item: "O=C(Nc1ccn(-c2ccccc2Cl)n1)c1ccccc1OC(F)(F)F"
3.28

====

Assay: Determination of the log P values by HPLC (formic acid method)
Assay type: physicochemical
Conditions: reversed-phase column (C 18), acidic range (pH 3.4), 55° C.
Method: 1) Description of Method for Determination of the Log P Values (Formic Acid Method) Eluents for determination in the acidic range (pH 3.4): Eluent A: acetonitrile+1 ml of formic acid/liter. Eluent B: water+0.9 ml of formic acid/liter. The lambda max values were determined in the maxima of the chromatographic signals using the UV spectra from 200 nm to 400 nm.
A collection of compounds and their measured log P
Keep the answer to the number alone.

Example entries and their recorded answers appear below.
- COMPOUND STRUCTURE STRING: "O=C(Nc1nn(-c2ccccc2Br)nc1Cl)c1ccccc1Cl"
  VALUE MEASURED: 3.09
- COMPOUND STRUCTURE STRING: "Cc1nn(C)c(F)c1C(=O)Nc1ccn(-c2ccccc2Cl)n1"
  VALUE MEASURED: 2.15
- COMPOUND STRUCTURE STRING: "Cc1cc(NC(=O)c2cccnc2Br)nn1-c1ccccc1Cl"
  VALUE MEASURED: 1.85

// below: log P requested for another compound
Requested field: log P. Item: "O=C(Nc1ccn(-c2ccc(F)cn2)n1)c1ccccc1C(F)(F)F"
2.88

====

A collection of compounds and their measured log P
assay: Determination of the log P values by HPLC (formic acid method); assay type: physicochemical; conditions: reversed-phase column (C 18), acidic range (pH 3.4), 55° C.
Keep the answer to the number alone.

- COMPOUND STRUCTURE STRING: "Cc1nn(-c2ncccc2Cl)nc1NC(=O)c1ccccc1I"
  log P: 2.28
- COMPOUND STRUCTURE STRING: "Cc1nc(-n2ccc(NC(=O)c3ccccc3Br)n2)c(F)cc1F"
  log P: 2.71
- COMPOUND STRUCTURE STRING: "O=C(Nc1cnn(-c2ncccc2Br)n1)c1ccccc1C(F)(F)F"
  log P: 2.46
- COMPOUND STRUCTURE STRING: "Cn1ncnc1C(=O)Nc1ccn(-c2c(F)cccc2F)n1"
  log P: 1.93
- COMPOUND STRUCTURE STRING: "CCc1nn(C)c(C(=O)Nc2ccn(-c3c(F)cccc3F)n2)c1Cl"
  log P: 3.24
- COMPOUND STRUCTURE STRING: "O=C(Nc1ccn(-c2cncc(F)n2)n1)c1ccccc1I"
  log P: 3.28
- COMPOUND STRUCTURE STRING: "O=C(Nc1ccn(-c2ccccn2)n1)c1ccccc1Br"
  log P: 2.36
- COMPOUND STRUCTURE STRING: "CSc1ncccc1C(=O)Nc1ccn(-c2ncc(F)cc2F)n1"
  log P: 2.14
- COMPOUND STRUCTURE STRING: "Cc1nn(C(F)F)c(C(=O)Nc2ccn(-c3c(F)cccc3F)n2)c1Cl"
  log P: 3.11
- COMPOUND STRUCTURE STRING: "N#Cc1ccccc1C(=O)Nc1ccn(-c2c(F)cccc2F)n1"
  log P: 2.48

// below: log P requested for another compound
Requested field: log P. Item: "N#Cc1c(F)cccc1-n1ccc(NC(=O)c2ccccc2Cl)n1"
2.57
